System: KM-20L2
PROTOCOL TEXT: NCI tumour cell line growth inhibition, 48 h
Active and inactive are the calls of the source. No stated cut-off is given here; in the data, active = GI50 up to about 1.1 µM and inactive = higher.
RECORDED ENDPOINT: GI50

Sample answers from the record:
MOL SMILES: COC(=O)N/N=C(\C(=O)Nc1cccc([N+](=O)[O-])c1)c1nc2ccc([N+](=O)[O-])cc2nc1O
GI50: 13.9 µM (inactive)
//
MOL SMILES: O=C(Nc1ccccc1-c1nn(C(=S)Nc2ccccc2)c(=S)n(C(=S)Nc2ccccc2)c1=O)C(F)(F)F
GI50: 36.2 µM (inactive)
//
MOL SMILES: CC(=O)NNc1nc(C)c(C(=O)NNC(=O)C(=O)Nc2c(C)cccc2C)s1
GI50: 35.2 µM (inactive)

As a next step, examine the compound that follows.
Find the measured GI50 of "Cc1ccc2c(ccc(/C=C\c3cc(C)c4cccnc4c3O)[n+]2C)c1" and report it.
2.84 µM (inactive)

====

Give measured GI50 for each item. Keep answers brief.
System: A549
PROTOCOL TEXT: NCI tumour cell line growth inhibition, 48 h
The source made the active and inactive calls. Rule as the data show it: active = GI50 up to about 1.1 µM and inactive = higher.

Please give GI50, item by item, for the list that follows.
1. CC(=O)OCC1OC(n2c(Br)nc3c2c(=O)n(C)c(=O)n3C)C(OC(C)=O)C1OC(C)=O (stereo not given)
2. O=[N+]([O-])c1cnn(C2=CNc3ccccc3N=C2)c1
3. CC(O)C(O)C(O)C(/C=N\Nc1ccccc1)=N/Nc1ccccc1 (stereo not given)
4. CCCCCC(=O)C(C)C1=Nc2nnc(CCCCCCCc3nnc4n3C(=O)C(C(C)C(=O)CCCCC)=N4)n2C1=O (stereo not given)
5. Cn1c2ccccc2c2c(=S)c3ccccc3ccc21
6. CCOC(=O)CC(=O)Sc1ccccc1
7. O=C(O)CCCN/C(=C1\C(=O)C(=O)N(c2ccccc2)C1=O)c1ccccc1

1: > 100 µM (inactive); 2: > 100 µM (inactive); 3: 11.4 µM (inactive); 4: > 100 µM (inactive); 5: 71.4 µM (inactive); 6: 14.6 µM (inactive); 7: > 100 µM (inactive)

Please give GI50 for each item listed below.
1. CCCCNS(=O)(=O)c1n[nH]c(=O)[nH]c1=O
2. COc1cc2cc(C(=O)N3CC(CCl)c4c3cc([N+](=O)[O-])c3ccccc43)[nH]c2c(OC)c1OC (stereo not given)
3. Cc1ccc(C)c(N2C(=O)C(=O)c3c(C)ccc(C)c32)c1

> 100 µM (inactive)
1.8 µM (inactive)
25.7 µM (inactive)

====

Test system: SK-MEL-28
PROTOCOL TEXT: NCI tumour cell line growth inhibition, 48 h
The source made the active and inactive calls. Cut-off read from the data, not from the text of the source: active = GI50 up to about 1.1 µM and inactive = higher.
Give one outcome, nothing more. List: active, inactive

Some solved cases for reference:
COMPOUND: COc1ccc(/C=C(/c2ccccc2)c2c(C)cc(C)c(/C(=C\c3ccc(OC)cc3)c3ccccc3)c2/N=N/c2cc(C)cc(C)c2)cc1
CLASSIFICATION: inactive
--
COMPOUND: NC1=NC(=O)[C@H](Cc2c[nH]c3ccccc23)N1C(=O)OCc1ccccc1
CLASSIFICATION: active
--
COMPOUND: CC(=O)O[C@H]1CCC2[C@@H]3CCC4Cc5nc6c(nc5C[C@]4(C)C3CC[C@@]21C)CC1CC[C@@H]2C(CC[C@@]3(C)C2CC[C@@H]3C(C)CCCC(C)C)[C@@]1(C)C6 (stereo not given in full)
CLASSIFICATION: inactive
--
COMPOUND: C[C@H](O)CCC(=O)c1ccoc1
CLASSIFICATION: inactive

Let's switch to this compound now.
Per the assay record, what outcome was assigned to "COc1ncnc2c1cnn2Cc1cn(CCCCO)nn1" ?
inactive

====

System: TK-10
PROTOCOL TEXT: NCI tumour cell line growth inhibition, 48 h
Active and inactive are the calls of the source. Rule as the data show it: active = GI50 up to about 1.1 µM and inactive = higher.
For each entry below, report its GI50 value.

MOLECULE: O=C1CCCC2=C1CC1=C(CCCC1=O)N2c1ccccc1C(=O)O
ASSAY TARGET: TK-10
GI50: > 100 µM (inactive)
//
MOLECULE: C(=N\NC1=NCCN1)/c1cccc2cc3ccncc3nc12
ASSAY TARGET: TK-10
GI50: 10.4 µM (inactive)
//
MOLECULE: N=C(N)SCCON1C(=O)c2ccccc2C1=O
ASSAY TARGET: TK-10
GI50: > 100 µM (inactive)

# batch: return GI50 for each of the 3 molecules below
1. Cc1ccc2nc(Cl)c(/C=N/N3C(=O)/C(=C/Cc4ccco4)N=C3c3ccccc3)cc2c1
2. COc1ccc(/C=C2\CCC(CNc3cc(C)on3)C2=O)cc1 (stereo unspecified)
3. CC(=O)c1c2c(cc3c1CCC3)CCC2

18.4 µM (inactive)
> 84.9 µM (inactive)
49 µM (inactive)

====

Consider the following compounds; for each one, report its GI50.
Tested on: 786-0
PROTOCOL TEXT: NCI tumour cell line growth inhibition, 48 h
The source made the active and inactive calls. Rule as the data show it: active = GI50 up to about 1.1 µM and inactive = higher.

COMPOUND: CCOP(=O)(OCC)c1ccc(=O)[nH]c1-c1cccs1
RECORDED ENDPOINT: GI50
MEAS VALUE: > 100 µM (inactive)

Report GI50 for each item below.
1. CCOC(=O)c1nc2cc(C(F)(F)F)ccc2nc1Oc1ccc(C#N)cc1
2. CCOC(=O)C(NC(=O)Nc1ccc(C)cc1)(OCC)C(F)(F)F (stereo not given)

1: > 100 µM (inactive); 2: > 100 µM (inactive)

For each listed entry, give its GI50.
1. Oc1c(Cl)cc2cc1-c1cc(cc(Cl)c1O)CCc1c(cc(Cl)c(O)c1Cl)-c1cc(Cl)c(c(Cl)c1O)/C=C\2
2. CCOC(=O)/C(C)=C(/O)C(=O)OCC
3. O=[N+]([O-])c1cc(C(F)(F)F)cc2n[se]nc12
4. Cc1cc(C)nc(NS(=O)(=O)c2ccc(NC(=O)c3cccn4c(=O)c5ccccc5nc34)cc2)n1
5. CC(=O)N1N=C(c2ccc3ccccc3c2O)CC1C(=O)c1ccco1 (stereo not given)
6. COc1ccc(/C=C2\CCC(CNc3cc(C)on3)C2=O)cc1 (stereo not given)

["8.36 µM (inactive)", "> 100 µM (inactive)", "2.21 µM (inactive)", "> 100 µM (inactive)", "45 µM (inactive)", "> 100 µM (inactive)"]

Retrieve GI50 measured for CC(O)C(O)C(O)C(/C=N\Nc1ccccc1)=N/Nc1ccccc1 (stereo not given) and print it.
14.2 µM (inactive)

====

System: SR
PROTOCOL TEXT: NCI tumour cell line growth inhibition, 48 h
Calls of active or inactive are those of the source. Cut-off read from the data, not from the text of the source: active = GI50 up to about 1.1 µM and inactive = higher. Non-standard residues stand in square brackets, D forms with d. Residues, ends and D or L forms follow the SMILES beside them. ξ: configuration not given here. ξLac(3-iPr) = CC(C)CC(O)C(=O)O; NMeV = CN[CH](C(=O)O)C(C)C; NMeA = CN[CH](C)C(=O)O; βAla = NCCC(=O)O
RECORDED ENDPOINT: GI50

MOLECULE: CCC(C)C1NC(=O)C2CCCN2C(=O)C(CC(C)C)OC(=O)CCNC(=O)C(C)N(C)C(=O)C(C(C)C)N(C)C1=O (stereo unspecified) (cyclo([ξLac(3-iPr)]PI[NMeV][NMeA][βAla]); configuration not given here)
GI50: 0.766 µM (active)
//
MOLECULE: COc1ccc2o/c(=N/c3ccccc3)c(C(N)=O)cc2c1
GI50: > 100 µM (inactive)
//
MOLECULE: CC(=O)OCC1OC(n2c3c(cc(C#N)c2=O)CCCCCC3)C(OC(C)=O)C(OC(C)=O)C1OC(C)=O (stereo unspecified)
GI50: 96.6 µM (inactive)
//
MOLECULE: O=C(OCC1CC(C2(O)CCCCC2)C(=O)O1)c1ccccc1 (stereo unspecified)
GI50: > 100 µM (inactive)
//
MOLECULE: O=C(CC1(O)C(=O)Nc2ccccc21)c1ccncc1 (stereo unspecified)
GI50: > 100 µM (inactive)

Would you kindly look at the next entry?
Give the value of GI50 reported for the following: O=C1CC(O)C=C1Nc1ccc(Cl)cc1 (stereo unspecified)
19.1 µM (inactive)

====

Provide the recorded GI50 for the entries that follow.
Tested on: SW-620
PROTOCOL TEXT: NCI tumour cell line growth inhibition, 48 h
Active and inactive are the calls of the source. Cut-off read from the data, not from the text of the source: active = GI50 up to about 1.1 µM and inactive = higher.

Would you please look over these solved cases?
COMPOUND: CCOC(=O)c1c(OCC)[nH]c(=O)c(C(c2ccc(F)cc2)c2c(O)c(C(=O)OCC)c(OCC)[nH]c2=O)c1O
MEAS VALUE: 17.3 µM (inactive)

COMPOUND: N#C/C(=C1\SCC(=O)N1c1ccccc1)c1nc2ccccc2[nH]1
MEAS VALUE: > 100 µM (inactive)

COMPOUND: O=[N+]([O-])c1ccc2nc3ccccc3cc2c1
MEAS VALUE: 1.85 µM (inactive)

COMPOUND: Nc1n/c(=N\c2ccccc2)ss1
MEAS VALUE: > 100 µM (inactive)

Go through the list and state GI50 for each entry.
1. CC(C)C1=CC23CCC4C(C)(C(=O)O)CCCC4(C)C2CC1C1C(=O)N(c2cccc(N4C(=O)C5C6CC7C8(C)CCCC(C)(C(=O)O)C8CCC7(C=C6C(C)C)C5C4=O)c2)C(=O)C13 (stereo unspecified)
2. CC(=O)OCC1OC(n2c(Br)nc3c2c(=O)n(C)c(=O)n3C)C(OC(C)=O)C1OC(C)=O (stereo unspecified)
3. CC(C)(Sc1cc(C(C)(C)C)c(O)c(C(C)(C)C)c1)Sc1cc(C(C)(C)C)c(O)c(C(C)(C)C)c1
4. CSc1ccccc1P(CCP(c1ccccc1SC)c1ccccc1SC)c1ccccc1SC
5. CCOc1ncn(-c2ccc(NC(=S)NC34CC5CC(CC(C5)C3)C4)cc2)n1
6. CCOC(=O)C(C(CC(=O)OC)NC(=O)OCc1ccccc1)C1(C)OCCO1 (stereo unspecified)

16.3 µM (inactive)
76.9 µM (inactive)
> 100 µM (inactive)
16.7 µM (inactive)
> 100 µM (inactive)
> 100 µM (inactive)
